Taken from patent US20240083890A1.

Tested on: MOLP-8 human multiple myeloma cell line
Experiment: Caspase-Glo 3/7 apoptosis induction assay in MOLP-8 cells
Format: cell-based
Settings: Homo sapiens, MOLP-8; caspase-3/7 activation, 2 hours incubation at 37° C.; averaged over all runs on all batches; read-out: MOLP8 AC50
Parameter: log10(AC50) (log10 of the value in nM)
Field: value | Transform: log10 | Quantity: AC50 | Unit: nM

Observe how each entry below is paired with its result.
{"columns": ["Compound", "log10(AC50)"],
 "data": [
  ["C[C@@H]1[C@@H](C)C/C=C(\\F)[C@@]2(COC(C)(C)OC[C@@H]2O)N2CCC[C@H]2CN2C[C@@]3(CCCc4cc(Cl)ccc43)COc3ccc(cc32)C(=O)NS1(=O)=O", 1.98],
  ["C[C@@H]1[C@@H](C)C/C=C(\\F)[C@H]([C@@H](O)COCC2CCOCC2)N2CC[C@H]2CN2C[C@@]3(CCCc4cc(Cl)ccc43)COc3ccc(cc32)C(=O)NS1(=O)=O", 1.84],
  ["CO[C@@H](CO)[C@@]1(CO)/C(F)=C/C[C@H](C)[C@@H](C)S(=O)(=O)NC(=O)c2ccc3c(c2)N(C[C@@H]2CCN21)C[C@@]1(CCCc2cc(Cl)ccc21)CO3", 3.60],
  ["COCCN(CCOC)C[C@H](O)[C@H]1/C(F)=C/C[C@H](C)[C@@H](C)S(=O)(=O)NC(=O)c2ccc3c(c2)N(C[C@@H]2CCN21)C[C@@]1(CCCc2cc(Cl)ccc21)CO3", 1.84],
  ["C[C@@H]1[C@@H](C)C/C=C(\\F)[C@](CO)([C@@H]2COC(C)(C)O2)N2CC[C@H]2CN2C[C@@]3(CCCc4cc(Cl)ccc43)COc3ccc(cc32)C(=O)NS1(=O)=O", 2.74]
]}

Give the observed log10(AC50) of "C[C@H](O)[C@H]1/C(F)=C/C[C@H](C)[C@@H](C)S(=O)(=O)NC(=O)c2ccc3c(c2)N(C[C@@H]2CCCN21)C[C@@]1(CCCc2cc(Cl)ccc21)CO3" for MOLP-8 human multiple myeloma cell line.
2.38

Give the observed log10(AC50) of "COCC(COC)OC[C@H](O)[C@H]1/C(F)=C/C[C@H](C)[C@@H](C)S(=O)(=O)NC(=O)c2ccc3c(c2)N(C[C@@H]2CCN21)C[C@@]1(CCCc2cc(Cl)ccc21)CO3" for MOLP-8 human multiple myeloma cell line.
1.67

Give the observed log10(AC50) of "C[C@@H]1[C@@H](C)C/C=C(\F)[C@H]([C@@H](O)CN(C)C)N2CC[C@H]2CN2C[C@@]3(CCCc4cc(Cl)ccc43)COc3ccc(cc32)C(=O)NS1(=O)=O" for MOLP-8 human multiple myeloma cell line.
3.01

Give the observed log10(AC50) of C[C@@H]1[C@@H](C)C/C=C(\F)C(C(O)COCC2CCOCC2)N2CC[C@H]2CN2C[C@@]3(CCCc4cc(Cl)ccc43)COc3ccc(cc32)C(=O)NS1(=O)=O (single isomer, unassigned) for MOLP-8 human multiple myeloma cell line.
2.38

Give the observed log10(AC50) of "COCCN(C)C[C@H](O)[C@H]1/C(F)=C/C[C@H](C)[C@@H](C)S(=O)(=O)NC(=O)c2ccc3c(c2)N(C[C@@H]2CCN21)C[C@@]1(CCCc2cc(Cl)ccc21)CO3" for MOLP-8 human multiple myeloma cell line.
2.59
